Tested on: DNA aptamer or structured DNA GGGACGACGGGGCTGTGGGAGGGGGTTCATGGGTCCCGGTCGTCCC
TEST CONDITIONS: 10 mM Tris-HCl, pH 7.4
QUANTITY KIND: pKd
Just the number, please; pKd means minus log10 of the concentration in mol/L.

What measured pKd goes with `CC(=O)Oc1ccc2c3c1O[C@H]1[C@@H](OC(C)=O)C=C[C@H]4[C@@H](C2)N(C)CC[C@@]341` ?
5.19

* * *

Tested on: DNA aptamer or structured DNA GGGACGACATGCGTCGAAAAGACCCCTGAGGGCAGCTGGTCGTCCC
TEST CONDITIONS: 10 mM Tris-HCl, pH 7.4
QUANTITY KIND: pKd
Just the number, please; pKd means minus log10 of the concentration in mol/L.

Please tell me: pKd of `CC(=O)Oc1ccc2c3c1O[C@H]1[C@@H](OC(C)=O)C=C[C@H]4[C@@H](C2)N(C)CC[C@@]341` , system DNA aptamer or structured DNA GGGACGACATGCGTCGAAAAGACCCCTGAGGGCAGCTGGTCGTCCC?
5.95
